From: PubChem BioAssay (Tox21)

target or system: Nuclear receptor subfamily 1 group I member 2 (Homo sapiens)
assay info: Human pregnane X receptor (PXR) activation by small molecules, qHTS assay (AID 1346985); note: nearly all actives have a fitted effect of over 40% in size
measurement conditions: DPX-2 HepG2 CYP3A4-luciferase, 24 h; series mostly up to 38.3 µM
Results filed as inconclusive are left out. Activity calls are given as the source filed them. Calls come from the whole dose curve; as a rule, active = well fitted activation curve with a large enough effect in the repeat runs; inconclusive = weak or mixed curves; inactive = flat fitted curve, though single readings scatter.
Outcomes: active, inactive

1. N[C@@H]1CONC1=O : inactive
2. CCOc1ccccc1C(N)=O : inactive
3. CN(C)c1ccc(C(=C2C=CC(=[N+](C)C)C=C2)c2ccccc2)cc1 : inactive
4. CCCNC(C)C(=O)Nc1ccccc1C (stereo not given) : inactive
5. COC(c1ccccc1)(c1ccccc1)[C@H](Oc1nc(C)cc(C)n1)C(=O)O : active

----------
assay info: qHTS assay to identify small molecule antagonists of the estrogen related receptor signaling pathway with the pleiotropic PPARgamma coactivator (PGC) from Tox21 10K library (AID 1224841); note: actives are mostly falling curves and most rising ones were filed inactive; nearly all actives have a fitted effect of over 50% in size
measurement conditions: PGC/ERR reporter cell line, ONE-Glo luciferase, 18 h; series mostly up to 92.4 µM
Inconclusive results are not listed. The source made the active and inactive calls. No rule for the calls is given here.
Outcomes: active, inactive

1) NC(N)=NC(=O)Cc1c(Cl)cccc1Cl : inactive
2) CCCCN(CCO)CCCC : inactive
3) CC(C)(C)c1ccccc1 : inactive
4) C[N+]1([O-])CCOCC1 : inactive
5) CCCC(=O)c1ccccc1 : inactive
6) C=CC(=O)OCCCCCCOC(=O)C=C : inactive
7) C#CC(C)(CC)OC(=O)c1ccccc1C(=O)O (centres undefined) : inactive
8) CCN(CC)C(=O)Nc1ccc(OCC(O)CNC(C)(C)C)c(C(C)=O)c1 (centres undefined) : inactive
9) CC(=O)CC(C)=O : inactive
10) CC(C)CCOC(=O)c1ccc(N(C)C)cc1 : inactive
11) CC(C)CCOCc1ccccc1 : inactive
12) OCCN1CCNCC1 : inactive
13) CO[Si](OC)(OC)c1ccccc1 : inactive
14) BrC1CCC(Br)C(Br)CCC(Br)C(Br)CCC1Br (centres undefined) : active
15) CC[C@@H](N)CO : inactive
16) CCC(CO)(CO)COCC(CC)(CO)CO : inactive
17) COc1ccc(COC(C)=O)cc1 : inactive
18) CNC1(C)C2CCC(C2)C1(C)C (centres undefined) : inactive
19) Cc1occc(=O)c1OC(=O)C(C)C : inactive
20) COc1cc(C(=S)N2CCOCC2)ccc1O : inactive
21) Cc1ccc(S(=O)(=O)Oc2ccc(N=Nc3ccc(-c4ccc(N=Nc5c(O)ccc6cc(S(=O)(=O)O)cc(S(=O)(=O)O)c56)c(C)c4)cc3C)cc2)cc1 : active
22) CCOC(=O)C(C)C(C)=O (centres undefined) : inactive
23) O=S(=O)(O)c1ccc2nc(-c3ccccc3)[nH]c2c1 : inactive
24) COC(c1ccccc1)(c1ccccc1)[C@H](Oc1nc(C)cc(C)n1)C(=O)O : inactive
25) N[C@@H]1CONC1=O : inactive
26) CC(C)(C)NCC(O)COc1ccccc1OCC1CCCO1 (centres undefined) : inactive
27) CC(=O)CC(=O)Nc1ccc2[nH]c(=O)[nH]c2c1 : inactive
28) O=Cc1ccc(Cl)cc1 : inactive
29) C=CS(=O)(=O)O : inactive

----------
target or system: Nuclear receptor ROR-gamma (Homo sapiens)
assay info: qHTS assay to identify small molecule antagonists of the retinoid-related orphan receptor gamma (ROR-gamma) signaling pathway (AID 1159521; note: nearly all actives have a fitted effect of over 50% in size)
measurement conditions: Tet-on RORgamma CHO cells, RORE-luciferase, 16 h; series mostly up to 92.4 µM
Description: U.S. Tox21 Program National Center for Advancing Translational Sciences [NCATS] NIH Chemical Genomics Center [NCGC] U.S. Environmental Protection Agency [EPA] National Institutes of Environmental Health Sciences [NIEHS] National Toxicology Program [NTP] U.S. Food and Drug Administration [FDA] […] Reporter gene activity was induced using Doxycycline Hyclate and measured after 16 hr incubation. […]
Inconclusive results are not listed. The source made the active and inactive calls. The call rests on the fitted dose curve; in most records, active means well fitted inhibition curve with a large enough effect in the repeat runs; inconclusive means weak or mixed curves, or effect the other way; inactive means no such curve, though single readings can be large or run the other way.
Outcomes: True (active), False (inactive)

1) COc1cc(C(=S)N2CCOCC2)ccc1O : False
2) CCN(CC)C(=O)Nc1ccc(OCC(O)CNC(C)(C)C)c(C(C)=O)c1 (centres undefined) : False
3) Cc1scc2c1N(C(=O)CN1CCN(C)CC1)c1ccccc1NC2=O : False
4) CC1=CC(=O)c2ccccc2C1=O : True
